Test system: Human immunodeficiency virus 1
Test: Antiviral activity against HIV1 MDR/C harboring protease L10I, I15V, K20R, L24I, M36I, M46L, I54V, I62V, L63P, K70Q, V82A, and L89 mutant infected in PHA-PBM cells assessed as inhibition of p24 Gag protein production
Assay type: functional, organism-based
Conditions: Human immunodeficiency virus 1, MDR/C, PBMC
pEC50: −log10 of the molar value.

- INPUT SMILES: "COC(=O)N[C@H]1CO[C@@H]2C[C@H](OC(=O)N[C@@H](Cc3ccccc3)[C@H](O)CN(CC(C)C)S(=O)(=O)c3ccc(OC)cc3)C[C@H]12"
  pEC50: 7.82
- INPUT SMILES: "CC(C)CN(C[C@@H](O)[C@H](Cc1ccccc1)NC(=O)O[C@H]1CO[C@H]2OCC[C@H]21)S(=O)(=O)c1ccc(N)cc1"
  pEC50: 7.96
- INPUT SMILES: "COC(=O)N[C@@H]1CO[C@@H]2C[C@H](OC(=O)N[C@@H](Cc3ccccc3)[C@H](O)CN(CC(C)C)S(=O)(=O)c3ccc(OC)cc3)C[C@H]12"
  pEC50: 7.52

---

Assay read-out pKi; system under study: Protease (Human immunodeficiency virus 1).
Sequence (Q9YQ12 whole entry): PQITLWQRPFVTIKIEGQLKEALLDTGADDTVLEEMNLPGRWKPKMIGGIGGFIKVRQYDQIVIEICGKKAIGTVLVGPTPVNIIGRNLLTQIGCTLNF
pKi: −log10 of the molar value.

- INPUT SMILES: "COC(=O)N[C@H]1CO[C@@H]2C[C@H](OC(=O)N[C@@H](Cc3ccccc3)[C@H](O)CN(CC(C)C)S(=O)(=O)c3ccc(OC)cc3)C[C@H]12"
  pKi: 11.40
- INPUT SMILES: "COc1ccc(S(=O)(=O)N(CC(C)C)C[C@@H](O)[C@H](Cc2ccccc2)NC(=O)O[C@@H]2C[C@@H]3[C@@H](OC(=O)N(C)C)CO[C@@H]3C2)cc1"
  pKi: 10.70
- INPUT SMILES: "COc1ccc(S(=O)(=O)N(CC(C)C)C[C@@H](O)[C@H](Cc2ccccc2)NC(=O)O[C@@H]2C[C@@H]3[C@@H](NS(C)(=O)=O)CO[C@@H]3C2)cc1"
  pKi: 9.74
- INPUT SMILES: "COc1ccc(S(=O)(=O)N(CC(C)C)C[C@@H](O)[C@H](Cc2ccccc2)NC(=O)O[C@@H]2C[C@@H]3[C@@H](NC(C)=O)CO[C@@H]3C2)cc1"
  pKi: 11.12
- INPUT SMILES: "COc1ccc(S(=O)(=O)N(CC(C)C)C[C@@H](O)[C@H](Cc2ccccc2)NC(=O)O[C@@H]2C[C@@H]3[C@H](NS(C)(=O)=O)CO[C@@H]3C2)cc1"
  pKi: 10.49
- INPUT SMILES: "COc1ccc(S(=O)(=O)N(CC(C)C)C[C@@H](O)[C@H](Cc2ccccc2)NC(=O)O[C@@H]2C[C@@H]3[C@H](NC(C)=O)CO[C@@H]3C2)cc1"
  pKi: 11.13
